Origin of values: patent US10202360B2

SYSTEM TESTED: CREBBP (Homo sapiens (Human), UniProt Q92793)
Sequence (Q92793 1081-1197): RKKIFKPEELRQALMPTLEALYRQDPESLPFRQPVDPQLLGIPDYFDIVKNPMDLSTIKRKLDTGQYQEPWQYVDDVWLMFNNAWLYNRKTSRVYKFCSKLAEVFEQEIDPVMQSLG
TEST PROTOCOL: In vitro enzyme inhibition assay - CREBBP inhibition (AlphaScreen, biotinylated H4-tetraacetyl peptide)
Type: binding
CONDITION LABEL: Table 28; AlphaScreen, H4-tetraacetyl peptide
MEASUREMENT LABEL: IC50

COMPOUND	MEASUREMENT LABEL	MEASUREMENT
CCC[C@H](C)S(=O)(=O)Nc1cc(-c2ccc(=O)n(C)c2)nc(Oc2c(Cl)ccc(C)c2F)n1 [Example 227]	IC50	< 500 nM
CCCCS(=O)(=O)Nc1cc(-c2cc(C)c(=O)n(C)c2)nc(Oc2c(C)cccc2F)n1 [Example 19]	IC50	< 500 nM
Cc1ccc(F)c(Oc2nc(NS(=O)(=O)CCC(C)C)cc(-c3ccc(=O)n(C)c3)n2)c1Cl [Example 265]	IC50	< 500 nM
CCCCS(=O)(=O)Nc1cc(-c2ccc(=O)n(C)c2)nc(Oc2c(C)cccc2Cl)n1 [Example 102]	IC50	< 500 nM
